Field: apparent KD of MS2 coat protein. Provide a value for each of the sequences that follow.
# System: MS2 coat protein
# method description: apparent KD of MS2 coat protein; higher = weaker reporter binding
# applied conditions: Eterna round: R107; input ligand: arginine 13.2 mM
Write the number in nM without appending the unit.

Please give the measured apparent KD of MS2 coat protein for this sequence: ACGAGACGUCUGGAUACCAGCCCAGCGAUAAACAUGAGGAUCACCCAUGUCAAACCACCCGGCCCUUGGCAGCCACGUACCUCAC [theeternabot_sameState_MS2_Theo_B_10]
15.9

Entry under review: ACGACGCAUAGUGAUACCAGUAGAACAUGAGGAUCACCCAUGUCUGUUAUGUACAAAUACUGCCCUUGGCAGCACUAUGCGUCAG [SSTheo B #5] . Reported apparent KD of MS2 coat protein?
9.85

Recorded apparent KD of MS2 coat protein of AUGCAGGGCAACAGCCACUGUCACGGUGAUACCAGUACCCGUGCGUACCCUUGGCAGCAUCGUGGUACAUGAGGAUCACCCAUGU [Enatleceed] , please.
36.8

Sample UAUAUAUAAACAUGAGGAUCACCCAUGUAACGAGGACCGGUACGGCCGCCACUCGGCCGGCAAGGGAGAGGACGGGAAACCGUCG [ETA NP+V+V2 #27] — what was its apparent KD of MS2 coat protein?
12.5

Fill in: apparent KD of MS2 coat protein of UUCGUUUGCGGAAGGAGCGACGGACAUCGGUGAACAACGCACAUGAGGAUCACCCAUGUACGUCAGGUAGGUCGCCGCUAAGAGU [XArg-B3] is ___
29.3

What does the data say about its apparent KD of MS2 coat protein? Entry: AGCAGCUGGUUUCUUUUCUUUACAGCUGCACGAGGACCGGUACGGCCGCCACUCGAGGACAUGAGGAUCACCCAUGUGCCGGUCG
34.1

----------
For each entry below, report its apparent KD of MS2 coat protein value.
# Tested on: MS2 coat protein
# method description: apparent KD of MS2 coat protein, switch OFF state (with FMN for OFF switches, without FMN for ON switches); designed switch direction (-1 OFF switch, 1 ON switch): -1; higher = weaker reporter binding
# applied conditions: FMN input: 0 or 200 uM; Eterna round: R93 (includes R88 designs)
Provide the reading as a plain figure in µM.

Would you kindly share the measured apparent KD of MS2 coat protein for CAGAGACAUGAGGAUCACCCAUGUUAGGAUAUGCGUGUAUGCUAAAAAAAGUUAACAAGCAGAAGGAACAGAGG [JR_Exc001_Sub309] ?
0.0642

apparent KD of MS2 coat protein for AAGAACAGAGGAUAUACAUGAGGAUCACCCAUGUAAAAGAAAGAGGGAAAAGAGAAAAGUAGAAGGCUGAAGAA [Arsinoe III] ?
0.031

Which apparent KD of MS2 coat protein is listed for GUGUACAGAGGAUAUACUAAAGCAUGGAAACAUGCAAGAUCACAUGAGGAUCACCCAUGUAGAAGGCUGUACAC [Ex2: 741] ?
0.529

Please look up its apparent KD of MS2 coat protein: AACAAACAUGAGGAUCACCCAUGUCAGGAUAUCCGAAAUAAAGAAACAAUAAUAAUAAGGAGAAGGGACUAAAU [Ex1 sub 2]
0.0341

Sample AAAGGGCGAGGAUAUACAUGAGGAUCACCCAUGUAAAAAACAUAAUAAAAGAACUUAUGUAGAAGGCGUCCAAA [Meechl Ex3 2 R2 v2] — what was its apparent KD of MS2 coat protein?
0.321

Query (sequence): AACAGUACAGGAUAUACAUGAGGAUCACCCAUGUAAAAUAAAUAAAAAUAAAAGGGAAGUAGAAGGGUACUGGA [Moding Maslow revisited (73) 17] ; field requested: apparent KD of MS2 coat protein
0.0465

----------
# Tested on: K4 kissing-loop RNA reporter
# method description: apparent KD of K4 kissing-loop reporter; higher = weaker reporter binding
# applied conditions: Eterna round: R107; input ligand: arginine 13.2 mM
assay endpoint: apparent KD of K4 kissing-loop reporter (nM)
Output spec: scalar in nM, unitless text.

// lookup apparent KD of K4 kissing-loop reporter | system=K4 kissing-loop RNA reporter | key= AAAAUAAACUAGUGAUGUUGGUGUCCAGAUACCAGCGACGAAAGUCGCCCUUGGCAGCUGUGGACGUACAAAAUAAGUACGUCCU [MatMod 21 - Jieux - Same State - Theophylline A]
183

Please provide the recorded apparent KD of K4 kissing-loop reporter for AGCGGCGCGCUGGAUACCAGUGUCCGACGCGUUAGUAUAGAUCCAAAGUGAUGUUUUGGUCACCCUUGGCAGCCACCUCUGUCGG [theeternabot_exclusion_KL_Theo_B_29] , tested on K4 kissing-loop RNA reporter.
192

Hello, I am looking for reported apparent KD of K4 kissing-loop reporter with K4 kissing-loop RNA reporter for UGACUGGACUGAAGGAGCGCGAAACUCCUAGUGAUGUUAGGAAUACGAGACAAAGUCUCGACGCAGGUAGGUCGCAGUCUAGUCU [ArgBS 16 #SwitchBubble #StaticStem] . Could you help?
94.5

Item AGAUGGCAGUGAUGUUGCUGUUGGAGGGAUAAGGAUAUUGGCUAAACAAGAAGGUAUCGGCGGCAUUGAGGAAUGGGAGGCGCCU [theeternabot_exclusion_KL_FMN_A_7] with K4 kissing-loop RNA reporter - apparent KD of K4 kissing-loop reporter?
329

Param readout = apparent KD of K4 kissing-loop reporter; param system = K4 kissing-loop RNA reporter; param query = GUGGUGGUGGCGGCCGCCACUGAAGAUAAUGAGUGAUGUUCAAGUGAUGUUAAUAAGAACAGUAUCAGGACCGGGCCACCACCAC [Default title] ; response: value
27.7

Any idea what apparent KD of K4 kissing-loop reporter came out for UGACUGGAUGGAAGGAGCGCUAAACUCCUAGUGAUGUUAGGGACACGAGACAAAGUCUCGAAGCAGGUAGGUCGCCAUCUAGUCU [FiskerMod 13 - Jieux - Same State - Arginine B] on K4 kissing-loop RNA reporter?
156

Request - read-out apparent KD of K4 kissing-loop reporter | tested on K4 kissing-loop RNA reporter | sequence UGUACCGAGUCAGGAUAUGGCGUCGAAAGACGAAUCCUAGUGAUGUUAGCGAUCUGCGAAAGCAGUCCAGAAGGGACUUGGUACU [FmnBS 26 C50]
338

What reported apparent KD of K4 kissing-loop reporter corresponds to UUUUUGGAGAAUUAUAGUGAUGUUAUGAAGGAGGAUAUCUAAAGAUGGAGAAGGUUUAAUAGUUAAGGGAUGGAGGGUGGGUGGG [ExFMNA.Q] on K4 kissing-loop RNA reporter?
180

Write down the reported apparent KD of K4 kissing-loop reporter of AAAUAUUCGAGUGAUGUUCGAUAAAUAUCAGAGGAUAUGCUUAAAAGCAGAAGGCUGUAUUUCUAUUUGUUAUGUAAUUUUAUAA [JR_SSFMNA_Sub021] , test system: K4 kissing-loop RNA reporter.
160

Can you look up apparent KD of K4 kissing-loop reporter on K4 kissing-loop RNA reporter for CGCAGUGAUGUUGCGAGUAGAUACAGGGAAGGAGCGCGGUAGUACGCAGGUAGGUCGCCCACGCAGUGAUGUUGCGUCAUAGGGU [Exclusion Arginine A GF6] ?
93.1

Request body: readout apparent KD of K4 kissing-loop reporter, system K4 kissing-loop RNA reporter, query AGAUAGGGCUGAAGGAGCGUCGGAGAAGAGAAGAAGAAAUCCAGUGAUGUUGGAUAAAUCCGACAGGUAGGUCGCAGUUUUAUGA [hbob_SS_Arginine_B_2t137] . Return the value.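 Note: bound reporter read as fluorescence of individual clusters on recovered sequencing chips by microscopy, with normalized cluster intensities fitted with a binding model.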
135

----------
# System: MS2 coat protein
# method description: apparent KD of MS2 coat protein, switch OFF state (with FMN for OFF switches, without FMN for ON switches); designed switch direction (-1 OFF switch, 1 ON switch): -1; higher = weaker reporter binding
# applied conditions: FMN input: 0 or 200 uM; Eterna round: R93 (includes R88 designs)
Assignment: determine reported apparent KD of MS2 coat protein for the given sequences.
Express it in nM; write the number only.

Looking for the measured apparent KD of MS2 coat protein of AACUGACAUGAGGAUCACCCAUGUCAGGAUAUGCUUCAUAAAAAAAAAAAAAAAUGAUGCAGAAGGGACAUGAA [Design 25 :P Sub-opt 1] , can you help?
14.1

Would you kindly share the measured apparent KD of MS2 coat protein for AAACCACAUGAGGAUCACCCAUGUCAGGAUAUGCAAACAACAAACAACAAACAACAAAGCAGAAGGGACAACAA [63%, Olong, 2] ?
18

Give its apparent KD of MS2 coat protein value. Item: GAAAAGUCAGGAUAUAUAGGAAAAAUAAAAAAAAUAAAACUAUAGAAGGGACAUGAGGAUCACCCAUGUUAAAA [Mat - Exclusion 4 - Mayanna - D131]
24.7

For CAAAAGGAAGGAUAUACAUAAUAAAACGGGCGGGCACCUUAACAUGAGGAUCACCCAUGUAGAAGGUCCAAUAC [Onesmabe] , what is its reported apparent KD of MS2 coat protein?
18.6

Entry under review: AUAAAGUGAGGAUAUGCUAAGAAGUAAAUAGACAAAUAAAUGCAGAAGGCACAUGAGGAUCACCCAUGUAAGAA [Ex 4 Tesla 4] . Reported apparent KD of MS2 coat protein?
26.2

Consider the sequence AAGAAGUGAGGAUAUCGUUGUCGUCACAAAAGUGAUGACGACGAGAAGGCACAUGAGGAUCACCCAUGUAAAGA [Opal 28] and give its measured apparent KD of MS2 coat protein.
43

apparent KD of MS2 coat protein for AAGGGACAUGAGGAUCACCCAUGUUAGGAUAUGCUAUGGAAAAUAAAAUAAAAACAUAGCAGAAGGAACAAAAA [Mat - Exclusion 1 - Eli mod - D36] ?
60.5

Give its apparent KD of MS2 coat protein value. Item: AAAAAGGUAGGAUAUACGAAAAAAAAGGGUAGAAAAAUAAAACAUGAGGAUCACCCAUGUAGAAGGACCAAAAA [Ex 2 sub 1 70% 1]
86.5

Would you kindly share the measured apparent KD of MS2 coat protein for AGCUAGUCAGGAUAUACAAAAUGAUUGCAAAAGCAAUCAACACAUGAGGAUCACCCAUGUAGAAGGGACUAGCA [Mat - Exclusion 2 - JL-Eli mod - D44] ?
19.4

Which apparent KD of MS2 coat protein value belongs to AAAAAACAUGAGGAUCACCCAUGUGAGGAUAUCGCUAGUGAGGCCAUAGUGUCAGUGAUGAGAAGGCACAUAAA [Brourd 613 Mod 9 - Jieux - Exclusion 1] ?
30.8

Could you tell me which apparent KD of MS2 coat protein is on file for AGAACGUCAGGAUAUGCAACAACAAGUAAAUAGAGAAGAAGGCAGAAGGGACAUGAGGAUCACCCAUGUAAGAA [e4] ?
29.9

Look up apparent KD of MS2 coat protein: AAAAAUUGAGGAUAUACGAACAUGUCAAAAGACGUGAAGGGACAUGAGGAUCACCCAUGUAGAAGGCGAAAGAA [JL Loop Breaker 1]
19.9

Give the measured apparent KD of MS2 coat protein of AACAGAACAGGAUAUACAUGAGGAUCACCCAUGUCACAACAAAGCAGCGCAACACAAAGUAGAAGGGUUAUGGA [Ruby 14] .
40.9

Fill in: apparent KD of MS2 coat protein of AAAAAGGUAGGAUAUGCUAAAUAACAUGAAGAAUAAAUAAAACAUGAGGAUCACCCAUGUAGAAGGACCAAAAA [Ex 2 Tesla 1] is ___
20

For CUCUUGUCAGGAUAUCAAAGAAAAGAAGAGAAAGAAAAGAAUGAGAAGGGACAUGAGGAUCACCCAUGUAAGAA [EteRNA is fun!] , what is its reported apparent KD of MS2 coat protein?
51.7

Please report the recorded apparent KD of MS2 coat protein for ACAAAACAUGAGGAUCACCCAUGUGAGGAUAUGCGAAACAAACAAACAAACAAACAAAGCAGAAGGCACAACAA [Ex 1 Tesla 3] .
31

For the sequence AAAAAACAUGAGGAUCACCCAUGUGAGGAUAUCGAUAUUAAAGACACCCACUUAAUGGCGAGAAGGCGCAAAAA [Brourd 613 Mod 20 - Jieux - Exclusion 1] , what apparent KD of MS2 coat protein is on record?
26.5

Entry AACAGUACAGGAUAUACAUGAGGAUCACCCAUGUGGGUAAAAAGAUCGAGAGAUCAAUGUAGAAGGGUACUGGA [JL In the Red 04] : reported apparent KD of MS2 coat protein = ?
104

Fill in: apparent KD of MS2 coat protein of AAGAAGUGAGGAUAUCGAAGACUGUCGAAAAGACAGUCGAACGAGAAGGCACAUGAGGAUCACCCAUGUGAGGG [Marsurpial 65% 3] is ___
69.9

Quick check: apparent KD of MS2 coat protein of AACAAGUCAGGAUAUCCGAAAAGUAAAUAAGUAAAACAAAAGGAGAAGGGACAUGAGGAUCACCCAUGUAAAUA [JR_Exc004_Sub015] ?
27.2

Name the reported apparent KD of MS2 coat protein value associated with the sequence AAAAAACAUGAGGAUCACCCAUGUGAGGAUAUGCUGCGAAUAAAGAAAGAAGAAAGCAGCAGAAGGCACACCAA [Amethyst 77]
45.6

For AGCAAACAUGAGGAUCACCCAUGUGAGGAUAUGAACGAAAAUAAAUAAAAAUAAAAGUUCAGAAGGCACGAGCA [66%, Wbt, 26] , what is its reported apparent KD of MS2 coat protein?
35.6

Fill in: apparent KD of MS2 coat protein of AAGAACCGAGGAUAUACAUGAGGAUCACCCAUGUAAAAGAAAGAGGGAAAAGAGAAAAGUAGAAGGCGGAAGAA [Berenice I] is ___
57.4

Entry under review: AGGAUGUCAGGAUAUGUGUAAAGAAUAAAACAAAUAACAACACAGAAGGGACAUGAGGAUCACCCAUGUUACGA [May 43] . Reported apparent KD of MS2 coat protein?
37.3

# query: apparent KD of MS2 coat protein of entry AAAAAGUCAGGAUAUCGGAAAAUAAAAAUAAAAAAAAAAAACGAGAAGGGACAUGAGGAUCACCCAUGUAUGAC [Mat - Exclusion 4 - Mayanna - D113]
39

Request the reported apparent KD of MS2 coat protein associated with AAGAACGGAGGAUAUACAUGAGGAUCACCCAUGUAAAAGAAAGAAAAGGGAAAGAAAAGUAGAAGGCCGAAGAA [Djeserkare Amenhotep I]
51.3
